The entries below are paired with their reported pKd.
- target-or-test-system: T1, GFP-9S library array, motif 4 ND N98T;D124S (synthetic construct, N98T;D124S)
- T1 chain: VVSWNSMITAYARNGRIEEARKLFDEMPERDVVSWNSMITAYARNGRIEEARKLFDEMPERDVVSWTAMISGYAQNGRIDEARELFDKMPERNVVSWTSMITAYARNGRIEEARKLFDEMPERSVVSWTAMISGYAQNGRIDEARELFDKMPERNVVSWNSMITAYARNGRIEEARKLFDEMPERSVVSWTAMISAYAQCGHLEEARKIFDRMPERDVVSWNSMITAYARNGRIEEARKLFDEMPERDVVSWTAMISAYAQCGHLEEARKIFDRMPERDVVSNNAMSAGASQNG
- method: high-throughput RNA pulldown from lysate on Ni-NTA beads; HRP: 50 mM Tris pH 8, 150 mM NaCl, 1 mM beta-mercaptoethanol, 50 ug/ml BSA, 3 ug/ml yeast RNA, 0.5% heparin; ITC and FP: Tris pH 8, 200 mM KCl, 5% glycerol; MST: 50 mM Tris pH 8, 200 mM NaCl, 1 mM DTT, BSA, heparin, 0.05% Tween 20
- measurement-parameters: tags: N-terminal His-eGFP; label: 5' Cy5
Remember, pKd is on a log scale: it is -log10 of the molar concentration.

{"binder": "AUUAGACGUGA (ssRNA) [Cy5-rpoA-G]", "pKd": 7.18}

Requested field: pKd. Item: AUUACACGUGA (ssRNA) [Cy5-rpoA]
7.43
